Field: one-hybrid fitness for binding parS DNA. Provide a value for each of the variants that follow.
B1: Caulobacter ParB omega fusion; a variant is named by its letters at X, in order, B8GW30 (parent)
chain: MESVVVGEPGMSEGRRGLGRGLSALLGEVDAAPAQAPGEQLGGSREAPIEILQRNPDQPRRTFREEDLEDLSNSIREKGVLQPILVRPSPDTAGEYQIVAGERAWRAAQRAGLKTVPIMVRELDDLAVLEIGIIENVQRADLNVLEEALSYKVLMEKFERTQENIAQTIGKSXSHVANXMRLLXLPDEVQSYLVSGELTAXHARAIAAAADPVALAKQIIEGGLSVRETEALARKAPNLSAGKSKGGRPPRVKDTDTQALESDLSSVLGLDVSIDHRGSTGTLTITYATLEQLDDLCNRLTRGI

# Variants of: B1
# TEST DESCRIPTION: one-hybrid fitness for binding parS DNA (scaled: cognate 1, non-cognate 0); higher = stronger binding
# MEASUREMENT CONDITIONS: with parS DNA site
The full ranking holds about 81,000 sequences; the median of “one-hybrid fitness for binding parS DNA” is about -0.17, and the highest 2% start at about 0.51. The list comes from a sample in which the highest values are over-represented; it also holds close analogues and randomly drawn sequences.

Answered cases to consult:
RRID :: ≤ 0.2
HLVN :: ≤ 0.2
RRIF :: ≤ 0.2
LTIQ :: ≤ 0.2
NVAA :: ≤ 0.2

Here is the next item to consider.
QUERY: Which one-hybrid fitness for binding parS DNA reading was recorded for the variant QLEI ?
RESULT: ≤ 0.2
